Give Ki for every item shown.
# TARGET_DESC: human M4 receptor (Homo sapiens (Human), UniProt P08173)
# Sequence (P08173 whole entry): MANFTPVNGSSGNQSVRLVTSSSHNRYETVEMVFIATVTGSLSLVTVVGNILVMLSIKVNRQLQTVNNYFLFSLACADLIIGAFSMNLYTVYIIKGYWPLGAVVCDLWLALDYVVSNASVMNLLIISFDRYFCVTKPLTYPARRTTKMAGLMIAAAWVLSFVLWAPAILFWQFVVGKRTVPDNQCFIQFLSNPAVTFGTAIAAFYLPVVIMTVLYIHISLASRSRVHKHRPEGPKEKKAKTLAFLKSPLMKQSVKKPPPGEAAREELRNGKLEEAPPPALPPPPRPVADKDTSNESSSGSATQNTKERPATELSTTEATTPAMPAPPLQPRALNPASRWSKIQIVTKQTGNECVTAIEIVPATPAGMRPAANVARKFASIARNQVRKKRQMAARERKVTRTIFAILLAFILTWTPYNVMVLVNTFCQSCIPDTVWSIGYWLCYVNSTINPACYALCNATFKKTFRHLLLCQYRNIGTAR
# EXPERIMENTAL_DETAILS: Radioligand (tritiated N-methylscopolamine) binding assay, M4
# STATED_CONDITIONS: Ki against the M4 receptor; membranes from CHO cells expressing human M4; tritiated N-methylscopolamine 1.5 nM; read-out: Ki

Study these solved cases before continuing.
ITEM_SMILES: O=C(OCCC1CCN(Cc2ccccc2)CC1)N1CCC(O)(c2ccccc2)CC1
Ki: 100 to 1000 nM

ITEM_SMILES: O=C(NCCC1CCN(Cc2ccccc2O)CC1)c1ccc(OCc2ccccc2)cc1
Ki: 10 to 100 nM

ITEM_SMILES: O=C(NCCC1CCN(Cc2ccccc2)CC1)N1CCN(c2cccc(C(F)(F)F)c2)CC1
Ki: 10 to 100 nM

ITEM_SMILES: Cc1ccnc(N2CCC(C(=O)NCCC3CCN(Cc4ccccc4)CC3)CC2)c1
Ki: 100 to 1000 nM

ITEM_SMILES: O=C(OCCC1CCN(Cc2ccccc2)CC1)N1CCC(c2ccccc2)CC1
Ki: 100 to 1000 nM

Give Ki for each listed item.
1. N#Cc1ccc(N2CCC(C(=O)NCCC3CCN(Cc4ccccc4)CC3)CC2)nc1
2. O=C(OCCC1CCN(Cc2ccccc2)CC1)N1CCN(c2cc(F)c(F)c(F)c2)CC1

["100 to 1000 nM", "10 to 100 nM"]

Provide only the value of recorded Ki for Cc1c(C(=O)NCCC2CCN(Cc3ccccc3)CC2)cnc2cc(-c3ccccn3)nn12
100 to 1000 nM

----------
# TARGET_DESC: UniProt P11229
# EXPERIMENTAL_DETAILS: Radioligand (tritiated N-methylscopolamine) binding assay, M1
# STATED_CONDITIONS: CHO cell membranes expressing human M1; 1.5 nM tritiated N-methylscopolamine; 90 min, 37° C.; read-out: Ki against M1 receptor (Table 21, M1)
QUANTITY_MEASURED: Ki

COMPOUND: C[C@H]1CN(c2ncc(C(F)(F)F)cc2F)CCC1C(=O)NCCC1CCN(Cc2ccccc2)CC1 (stereo partly shown)
Ki: 0.01 to 0.1 µM

COMPOUND: C[C@@H]1CN(c2ncc(C#N)c(N)n2)C[C@H](C)N1C(=O)NCCC1CCN(Cc2ccccc2)CC1 [5-14]
Ki: 0.1 to 1 µM

COMPOUND: C[C@@H]1CN(c2ccc(OC(F)(F)F)c(C#N)c2)CCN1C(=O)NC[C@@H](O)C1CCN(Cc2ccccc2)CC1
Ki: > 1 µM

Give Ki for each listed item.
1. Cc1ccccc1CN1CCC(CCNC(=O)N2CCN(c3ncc(C(F)(F)F)cn3)C[C@H]2C)CC1
2. O=C(NCCC1CCN(Cc2ccccc2)CC1)N1CCN(c2ccc(C(F)(F)F)cn2)CC1

["0.1 to 1 µM", "0.1 to 1 µM"]

----------
# TARGET_DESC: human M1 receptor (Homo sapiens (Human), UniProt P11229)
# Sequence (P11229 whole entry): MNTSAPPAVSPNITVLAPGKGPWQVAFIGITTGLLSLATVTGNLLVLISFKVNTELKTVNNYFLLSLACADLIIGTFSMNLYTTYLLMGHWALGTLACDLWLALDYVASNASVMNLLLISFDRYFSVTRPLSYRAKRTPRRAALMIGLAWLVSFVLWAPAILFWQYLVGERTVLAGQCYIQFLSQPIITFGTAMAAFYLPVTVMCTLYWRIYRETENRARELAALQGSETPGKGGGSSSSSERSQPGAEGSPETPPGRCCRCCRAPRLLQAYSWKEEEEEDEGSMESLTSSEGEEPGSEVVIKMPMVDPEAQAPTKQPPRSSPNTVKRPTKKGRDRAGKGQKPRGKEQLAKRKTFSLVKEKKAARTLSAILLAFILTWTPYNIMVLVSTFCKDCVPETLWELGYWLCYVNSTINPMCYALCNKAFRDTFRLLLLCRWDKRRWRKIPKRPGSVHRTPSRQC
# EXPERIMENTAL_DETAILS: Radioligand (tritiated N-methylscopolamine) binding assay, M1
# STATED_CONDITIONS: CHO cell membranes expressing human M1; 1.5 nM tritiated N-methylscopolamine; 90 min, 37° C.; read-out: Ki against M1 receptor (Table 21, M1)
QUANTITY_MEASURED: Ki

Illustrative cases are given below, each with its answer.
MOLECULE: N#Cc1cc(N2CCC(C(=O)NCCC3CCN(Cc4ccccc4)CC3)CC2)ccc1F
TARGET_DESC: human M1 receptor (Homo sapiens (Human), UniProt P11229)
Ki: > 1 µM
--
MOLECULE: CC1CN(c2ccc(OC(F)(F)F)cc2)CCC1C(=O)NCCC1CCN(Cc2ccccc2)CC1 (stereo not drawn) [10-6]
TARGET_DESC: human M1 receptor (Homo sapiens (Human), UniProt P11229)
Ki: 0.1 to 1 µM

Please turn your attention to the following entry.
Please look at this molecule and report its Ki: C[C@@H]1CN(c2cc(F)c(F)c(Cl)c2)C[C@H](C)N1C(=O)NCCC1CCN(Cc2ccccc2)CC1
0.1 to 1 µM
